PROTOCOL_SUMMARY: amyloid nucleation score (Sup35N fusion, yeast selection) (log enrichment); library NNK2; higher = more nucleation; inactive = no reads after selection;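 further: zero at mode of non-aggregating sequences after 7 days selection at 30°C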
TEST_READOUT: amyloid nucleation score
Give your answer as a number; write no unit.

Check out these entries, answers already filled in.
# QUERY_SEQUENCE, MEASUREMENT
measured = [
    ("GCVCDVGPVTVRGVNGVLVS", 1.45),
    ("RSIISFPLFLFSIQLIPPWA", -0.792),
]

sequence `SHSVRTMFPGGVNPRNIRGY` , amyloid nucleation score observed: 0.548

sequence `RLTFSSIVTGGLQFKTLL` , amyloid nucleation score observed: 2.75

sequence `CKALCIKIWVERVTC` , amyloid nucleation score observed: 2.31

sequence `RWSYLYSKEVH` , amyloid nucleation score observed: -1.28

sequence `CWQVYLIFMGRMVCLTVML` , amyloid nucleation score observed: 1.15

sequence `RGFWRVFGCRHIVATPFEVE` , amyloid nucleation score observed: 8.68

====

PROTOCOL_SUMMARY: amyloid nucleation score (Sup35N fusion, yeast selection) (log enrichment); library NNK2; higher = more nucleation; inactive = no reads after selection
Entry flag: T if amyloid nucleation score reaches 0.1; F if it does not.

# SUBSTANCE, ASSIGNED_CATEGORY
data = [
    ("RRLSNRRWLIFCQWSFHYGV", "T"),
    ("CDVFMQAKIASVMGYDVQRA", "F"),
    ("FFRCVLITPD", "T"),
    ("VCYAGLLAKRLRLVVVSGNV", "T"),
    ("SFIPRLYLV", "F"),
]

API: above_or_equal(metric=amyloid nucleation score, cutoff=0.1) for item `GFIISFYISDSCKSLCWQPM`
T

API: above_or_equal(metric=amyloid nucleation score, cutoff=0.1) for item `VNVYMYNYLLKHITKDRRST`
T

API: above_or_equal(metric=amyloid nucleation score, cutoff=0.1) for item `SHEGGD`
F

API: above_or_equal(metric=amyloid nucleation score, cutoff=0.1) for item `VYHDHLKLWSKGTSRVAWAL`
T

API: above_or_equal(metric=amyloid nucleation score, cutoff=0.1) for item `TRKILEMVFLLTAVNYNGVP`
F

API: above_or_equal(metric=amyloid nucleation score, cutoff=0.1) for item `RSLVLYSGRKVLS`
F

API: above_or_equal(metric=amyloid nucleation score, cutoff=0.1) for item `FGSAFTNGSVRNYVDGVQVI`
T

API: above_or_equal(metric=amyloid nucleation score, cutoff=0.1) for item `RSHGSQGMKSR`
T

API: above_or_equal(metric=amyloid nucleation score, cutoff=0.1) for item `GQIAKVKPVRWKFKTTTWGS`
T

API: above_or_equal(metric=amyloid nucleation score, cutoff=0.1) for item `LSPPYYYHMNCLPYNMSIWP`
T

API: above_or_equal(metric=amyloid nucleation score, cutoff=0.1) for item `YNLESLNFMLCSLRTQGKFR`
T

API: above_or_equal(metric=amyloid nucleation score, cutoff=0.1) for item `LYVNLRCRNYYVAVPVGDWD`
T

API: above_or_equal(metric=amyloid nucleation score, cutoff=0.1) for item `DLYQALSISV`
F

API: above_or_equal(metric=amyloid nucleation score, cutoff=0.1) for item `IPYEKPHRYIVNWECVAGSM`
T

API: above_or_equal(metric=amyloid nucleation score, cutoff=0.1) for item `FRSGCQFLWHERLNNNVTNA`
T

API: above_or_equal(metric=amyloid nucleation score, cutoff=0.1) for item `LTIRGKVTSTVAMLLDFLDS`
T

API: above_or_equal(metric=amyloid nucleation score, cutoff=0.1) for item `FASLFPKAPERTEVSEPYRR`
F

API: above_or_equal(metric=amyloid nucleation score, cutoff=0.1) for item `FKCPFSNFFAMDGYY`
F

API: above_or_equal(metric=amyloid nucleation score, cutoff=0.1) for item `IVSAMQLEHESQCKFGMNWV`
F

API: above_or_equal(metric=amyloid nucleation score, cutoff=0.1) for item `IIWQPHSPCVRVYTCLSLIF`
F

API: above_or_equal(metric=amyloid nucleation score, cutoff=0.1) for item `QIRAPHGGYVYYAGVATYSN`
F

API: above_or_equal(metric=amyloid nucleation score, cutoff=0.1) for item `MLERHKDRTRSGLKRGARET`
T
